- condition-context: human;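 also: human cytolytic liver injury, shown by histopathology or by a ratio above 5 of peak ALT or AST elevation to alkaline phosphatase elevation, value counts indexed references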
measured-attribute: Hepatotoxicity (cytolytic)
No unit in the answer, please; the number alone is enough.

Worked set:
C[C@@H]1C[C@H](C)CN(S(=O)(=O)c2ccc(Cl)c(C(=O)O)c2)C1 [TIBRIC ACID] ... 0
CC(CN1c2ccccc2Sc2ccccc21)N(C)C (configuration not stated) [PROMETHAZINE] ... 0

Query: Hepatotoxicity (cytolytic); subject: CC(C)c1c(C(=O)Nc2ccccc2)c(-c2ccccc2)c(-c2ccc(F)cc2)n1CC[C@@H](O)C[C@@H](O)CC(=O)O [ATORVASTATIN] 5

Repeat with CC(C)C[C@H](NC(=O)[C@@H](O)[C@H](N)Cc1ccccc1)C(=O)O [UBENIMEX] 0

Repeat with COc1ccc([C@@H]2Sc3ccccc3N(CCN(C)C)C(=O)[C@@H]2OC(C)=O)cc1 [DILTIAZEM] 6

Repeat with Cc1c(O)c(=O)ccn1C [DEFERIPRONE] 1

Repeat with CC[C@]1(O)C[C@H]2CN(CCc3c([nH]c4ccccc34)[C@@](C(=O)OC)(c3cc4c(cc3OC)N(C=O)[C@H]3[C@@](O)(C(=O)OC)[C@H](OC(C)=O)[C@]5(CC)C=CCN6CC[C@]43[C@@H]65)C2)C1 [VINCRISTINE] 4
